- TESTED_ON: Anti-CD28 scFv (VH-linker 1-VL) (biotinylated for capture on neutravidin plates)
- Sequence (scFv, as listed by the source): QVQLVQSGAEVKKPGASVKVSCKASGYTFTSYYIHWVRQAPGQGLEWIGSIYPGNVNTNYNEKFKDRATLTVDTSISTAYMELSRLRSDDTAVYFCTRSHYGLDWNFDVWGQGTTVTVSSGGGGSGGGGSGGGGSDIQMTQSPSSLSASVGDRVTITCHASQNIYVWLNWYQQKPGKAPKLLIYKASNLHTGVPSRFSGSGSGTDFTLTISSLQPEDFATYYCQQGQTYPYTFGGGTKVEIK
- ASSAY_REMARKS: phage ELISA, scFv captured on plate;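 note: crude clonal phage supernatants added to wells preincubated with soluble CD28 or with blocking buffer only, bound phage read out by HRP-linked anti-M13 antibody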
Threshold rule: Phage binding ELISA CD28 scFv signal greater than or equal to 1 is true; below that, false.

Before answering, review these 3 worked examples.
>>> discrete_label("MDWCPRAMWHECFY [Phage-207]")
"true"
>>> discrete_label("MDWCPRDLWDQCYA [Phage-122]")
"true"
>>> discrete_label("MDWCPRYMWNECFN [Phage-215]")
"false"

Query: Is it the case that VDWCPRYLWHVCYN [Phage-189] has Phage binding ELISA CD28 scFv signal reaching or exceeding 1?
Result: false

Query: Identify whether the reported Phage binding ELISA CD28 scFv signal of the following binder is 1 or greater: MDWCPSYLWHECFA [Phage-134]
Result: true

Query: Decide: Phage binding ELISA CD28 scFv signal of MDWCPRAMWNHCFN [Phage-198] >= 1?
Result: true

Query: I'd appreciate it if you could say whether MDWCPRYLWHECFH [Phage-137] has Phage binding ELISA CD28 scFv signal at least equal to 1.
Result: true

Query: I'd appreciate it if you could say whether MDWCPRDLWNVCFN [Phage-169] has Phage binding ELISA CD28 scFv signal at least equal to 1.
Result: false

Query: Is Phage binding ELISA CD28 scFv signal for MDWCPWILWNECFN [Phage-179] at or above 1?
Result: false

Query: # bool: Phage binding ELISA CD28 scFv signal of MDWCPMDMWVNCFN [Phage-193] >= 1
Result: true

src = patent US20230357447A1
